Data provenance: patent US11234979B2

Below, each entry is listed with its recorded half-life.
Test: Rodent pharmacokinetic study
Format: in vivo, Male Wistar rats
Conditions: male, Wistar, iv; rat, i.v. 1 mg/kg, plasma
Your answer should be a number followed by the unit of measure.

Incoming: Requested field: half-life. Item: `Cn1cc(-c2ccc(Cc3cc(C(=O)N[C@H]4CCCC[C@@H]4O)n4ncccc34)cc2F)cn1`
Outgoing: 1.3 h

Incoming: Requested field: half-life. Item: `O=C(N[C@H]1CCCC[C@@H]1O)c1cc(Cc2ccc3c(c2)CCO3)c2cccnn12`
Outgoing: 2.4 h

Incoming: Requested field: half-life. Item: `Cn1cc(-c2ccc(Cc3cc(C(=O)N[C@H]4CCCC[C@@H]4O)n4ncccc34)c(F)c2)cn1`
Outgoing: 3.7 h
